# subject_of_test: RSV postfusion F (postF), F ΔFP (Respiratory syncytial virus, UniProt P03420 26-513)
# protocol_details: BLI, IgG on anti-human IgG sensor, 100 nM antigen
measured_endpoint: pKd
pKd (log units): -log10 of the concentration in mol/L.

Query :: I am curious: what pKd value has been reported for ADI-41737 (antibody, V domains shown, also called Ab 897; Antibody Number 897) VH: QVQLQESGPGLVKPSQTLSLTCTVSGGSMISGDFYWSWIRQPPGKGLEWIGYIYYSGTTYYSPSLKSRVSMSIDTSKSQFSLKLSSVTAADTAVYYCARKYSYGEKAYHYWGQGTLVTVSS VL: EIVLTQSPGTLSLSPGERATLSCRASQTVGNNYLAWYQQKPGQAPRLLIYGASSRATGIPDRFSGSGSGTDFTLTISRLESEDFAVYHCHQYGTSPQTFGQGTKVEIK ?
Result :: 8.80

Query :: I am curious: what pKd value has been reported for ADI-41561 (antibody, V domains shown) VH: QVQLVQSGPTLVKPTQTLTLTCSFSGFSLTNTGVGVGWIRQPPGKALEWLALIYWDDDKRYRPSLKSRLTITKDTSKSQVVLTMTNMDPLDTATYYCAHRRSAYDPIYFDYWGQGALVTVSS VL: DIRVTQSPSSVSASVGDRVTITCRASRSINNWLAWYQQKPGKAPKLLIYAASSLQSGVPSRFSGSGYGTDFTLTISSLQPEDFATYYCQQAHSFPSITFGQGTRLEIK ?
Result :: 9.29

Query :: I am curious: what pKd value has been reported for ADI-41582 (antibody, V domains shown, also called Ab 856; Antibody Number 856) VH: EVQLVESGPGLVKPSQTLSLTCTVSGGPISSGVYYWSWIRQHPGKGLESIGYIYYSGSTHYNPSLKTRVTISLDTSKNQFSLKLSSVTAADTAVYYCARGCSGGSCYLYAFDIWGQGTTVTVSS VL: QPVLTQPPSVSVAPGQTARITCGGNNIGTKSVHWYQQKPGQAPLLVVYDDSDRPSGIPERFSGSNSGNTATLTISRVEAGDEADFYCQVWDYATDHVVFGGGTKLTVL ?
Result :: 9.04

Query :: I am curious: what pKd value has been reported for ADI-41611 (antibody, V domains shown, also called Ab 885; Antibody Number 885) VH: EVQLVESGGGLVKPGGSLRLSCAASGFTFSDYSMNWVRQAPGKGLEWVSSTSSGSTYIYYADSVKGRFTISRDNGKNSLYLQMNSLRAEDTAVYYCARAFRLGYDALDIWGQGTMVTVSS VL: DIRMTQSPSSLSASVGDRVTIICRASQSISNYLNWYQQKPGKAPKLLIYVASNLQSGVPSRFSGSGSGTDFTLTISSLQPEDFATYYCQQTYSPPPTFGGGTKLEIK ?
Result :: 9.21

Query :: I am curious: what pKd value has been reported for ADI-41581 (antibody, V domains shown, also called Ab 855; Antibody Number 855) VH: EVQLLESGSELKKPGASVKISCKTSGYTFTNYLMNWVRQAPGQGLEWMGWINTHTGNPTYAQDFTGRFVFSLDTSVNTAYLQISSLKAEDTAIYYCARDGLEAFSGYNGVDYWGQGTLVTVSS VL: DIVMTQTPLSLPVTPGEPASISCRSSPSLLHSNGYNYLDWYLQKPGQSPQLLIYLGSTRASGVPDRFSGSGSGTDFTLRISRVEAEDVGVYYCMQALQIPLTFGQGTKLEIK ?
Result :: 9.44

Query :: I am curious: what pKd value has been reported for ADI-41662 (antibody, V domains shown) VH: QVQLVQSGAEVKKAGESLKISCKGPRHSFTSYWIGWVRQMPGKGLEWMASIYPGDSDSRYSPSFEGQVTISADKSIDTAFLQWSSLKASDTAMYFCARYVGAVPGGNWYFDLWGRGTLVTVSS VL: SYELIQLPSVSVSPGQTARITCSGDALPKKYAYWYQQKSGQAPVLVIYDDNKRPSGIPARFSGSSSGTMATLTISGAQVEDEGDYYCYSTDSTGDHRGVFGGGTKLTVL ?
Result :: 8.92

Query :: I am curious: what pKd value has been reported for ADI-41677 (antibody, V domains shown) VH: QVTLKESGPALVKPTQTLTLTCTFSGFSLSTSRMCVSWIRQPPGKALEWLARIDWDGDIYYSTSLRTRLTISKDTSKNQVVLTMTNMDPVDTATYYCARTSIYATGGYYLYYSDYWGQGTLVTVSS VL: EIVMTQSPSSLSASVGDRVTITCRASQSIASYVNWFQQKPGKAPKLLIYAASNVHSGVPSRFSGSGSGTGFTLTISSLQPEDSAIYYCQQSYTTPWTFGQGTKLEIK ?
Result :: 9.47

Query :: I am curious: what pKd value has been reported for ADI-41583 (antibody, V domains shown) VH: QVQLVQSGAEVKKPGSSVKVSCKASGGTFSRHTITWVRQAPGQGLEWMGRIAPIVGFANYAQKFQGRVTITADKSTSTAYMELRSLRSEDTAVYYCARRSEDYYGLDVWGQGTTVTVSS VL: DIVMTQSPSSLSASVGDRVTITCQASQDISNYLNWYQQKPGKAPKLLIYEASNLETGVPSRFSGSGSGTDFTFTISSLQPEDIATYYCQQYDNLFGGGTKLEIK ?
Result :: 9.42

Query :: I am curious: what pKd value has been reported for ADI-41552 (antibody, V domains shown) VH: EVQLLESGGGLVQPGGSLRLSCAASGFTFSPYSMNWVRQAPGKGLEWVSYISRSGSFKYYADSVKGRFTISRDDAKNSLYLHMNSLRDDDTAVYYCVSYCSSATCHQRFDYWGQGTLVTVSS VL: EIVLTQSPATLSLSPGERATLSCRASQSVNSYLAWYQQKPGQAPRLLIYDASNRATGIPARFSGSGSGTDFTLTISSLEPEDFAVYYCQERNSWPKLTFGGGTKVEIK ?
Result :: 9.28

Query :: I am curious: what pKd value has been reported for ADI-41743 (antibody, V domains shown, also called Ab 898; Antibody Number 898) VH: EVQLVESGSGLVKPSQTLSLTCSVSGGSISSGGYSWSWIRQPPGKGLEWIGFIYNTGSTYSNPSLKSRLTLSVDRSNNRFSLKLNSVTAADTGVYFCARSGNVRQCDATGHCSTNYYFEYWGLGTLVTVSS VL: EIVMTQSPATLSVSPGERATLSCRASQSVSSNLAWYQQKPGQAPRLLIYGASTRATGIPARFSGSGSGTEFTLTISSLQSEDFAVYYCQQHDDWPPLTFGGGTKVEIK ?
Result :: 8.90
